- Tested on: Staphylococcus aureus
- ASSAY_PROTOCOL: Antibacterial activity against Staphylococcus […] at 10 ug/disk after overnight incubation by agar diffusion test
- Assay type: functional
- EXPERIMENTAL_CONDITIONS: read-out: Diameter of inhibition zone
RESULT_TYPE: zone of inhibition at 10 µg/disc

Some molecules with known zone of inhibition at 10 µg/disc results, for comparison:
MOLECULE: CCCCS[S+](C)[O-] (centres undefined)
zone of inhibition at 10 µg/disc: 0 mm
//
MOLECULE: CCCC[S+]([O-])SC (centres undefined)
zone of inhibition at 10 µg/disc: 8 mm
//
MOLECULE: CC1(C)S[C@@H]2[C@H](NC(=O)[C@H](N)c3ccccc3)C(=O)N2[C@H]1C(=O)O
zone of inhibition at 10 µg/disc: 38 mm

Please turn your attention to the following entry.
If you can, please state the reported zone of inhibition at 10 µg/disc value of CCCCS[S+]([O-])CCCC (centres undefined) .
10 mm
